Some compounds, each annotated with its measured IC50.
assay: Cytotoxicity against human HDF cells assessed as reduction in cell viability incubated for 6 hrs followed by irradiation for 30 mins with light at wavelength of 606 nm and measured after 36 to 48 hrs by MTT assay; format: toxicity, cell-based
Express it in µM; write the number only.

Solved entries (count: 2):
{"smi": "CCCCCCCCCCCC(=O)Nc1ccc(-c2c3nc(c(-c4ccc[n+](C)c4)c4ccc([nH]4)c(-c4ccc[n+](C)c4)c4nc(c(-c5ccc[n+](C)c5)c5ccc2[nH]5)C=C4)C=C3)cc1", "property.label": "IC50", "u": "µM", "quantitative.result": 6.26}
{"smi": "CCCCCCCCCCCCCC(=O)Nc1ccc(-c2c3nc(c(-c4ccc[n+](C)c4)c4ccc([nH]4)c(-c4ccc[n+](C)c4)c4nc(c(-c5ccc[n+](C)c5)c5ccc2[nH]5)C=C4)C=C3)cc1.[Cl-].[Cl-].[Cl-]", "property.label": "IC50", "u": "µM", "quantitative.result": 4.6}

Give a short answer stating reported IC50 for CCCCCCCC(=O)Nc1ccc(-c2c3nc(c(-c4ccc[n+](C)c4)c4ccc([nH]4)c(-c4ccc[n+](C)c4)c4nc(c(-c5ccc[n+](C)c5)c5ccc2[nH]5)C=C4)C=C3)cc1.[Cl-].[Cl-].[Cl-] .
32

From: ChEMBL document CHEMBL6153031
